# Condition details: in DMAc, 313.15 K
Parameter: solubility (mole fraction)
Please state the value as a number alone, without comment.

[ask] Look up and report measured solubility (mole fraction) for this entry: Cl.N=C(N)N
[reply] 0.394

====

# Condition details: in 2-butoxyethanol, 278.15 K
Parameter: solubility (mole fraction)
Please state the value as a number alone, without comment.

[ask] Look up and report measured solubility (mole fraction) for this entry: Cl.N=C(N)N
[reply] 0.104

====

# Condition details: in 2-methoxyethanol, 318.15 K
Parameter: solubility (mole fraction)
Please state the value as a number alone, without comment.

[ask] Look up and report measured solubility (mole fraction) for this entry: Cl.N=C(N)N
[reply] 0.381

====

# Condition details: in 2-methoxyethanol, 298.15 K
Parameter: solubility (mole fraction)
Please state the value as a number alone, without comment.

[ask] Look up and report measured solubility (mole fraction) for this entry: Cl.N=C(N)N
[reply] 0.333

====

# Condition details: in DMF, 318.15 K
Parameter: solubility (mole fraction)
Please state the value as a number alone, without comment.

[ask] Look up and report measured solubility (mole fraction) for this entry: Cl.N=C(N)N
[reply] 0.476

====

# Condition details: in ethanol, 308.15 K
Parameter: solubility (mole fraction)
Please state the value as a number alone, without comment.

[ask] Look up and report measured solubility (mole fraction) for this entry: Cl.N=C(N)N
[reply] 0.139

====

# Condition details: in DMF, 293.15 K
Parameter: solubility (mole fraction)
Please state the value as a number alone, without comment.

[ask] Look up and report measured solubility (mole fraction) for this entry: Cl.N=C(N)N
[reply] 0.384

====

# Condition details: in n-propanol, 308.15 K
Parameter: solubility (mole fraction)
Please state the value as a number alone, without comment.

[ask] Look up and report measured solubility (mole fraction) for this entry: Cl.N=C(N)N
[reply] 0.083

====

# Condition details: in ethanol, 278.15 K
Parameter: solubility (mole fraction)
Please state the value as a number alone, without comment.

[ask] Look up and report measured solubility (mole fraction) for this entry: Cl.N=C(N)N
[reply] 0.0832

====

# Condition details: in n-propanol, 293.15 K
Parameter: solubility (mole fraction)
Please state the value as a number alone, without comment.

[ask] Look up and report measured solubility (mole fraction) for this entry: Cl.N=C(N)N
[reply] 0.0571

====

# Condition details: in n-propanol, 323.15 K
Parameter: solubility (mole fraction)
Please state the value as a number alone, without comment.

[ask] Look up and report measured solubility (mole fraction) for this entry: Cl.N=C(N)N
[reply] 0.115

====

# Condition details: in isopropanol, 318.15 K
Parameter: solubility (mole fraction)
Please state the value as a number alone, without comment.

[ask] Look up and report measured solubility (mole fraction) for this entry: Cl.N=C(N)N
[reply] 0.135

====

# Condition details: in NMP, 288.15 K
Parameter: solubility (mole fraction)
Please state the value as a number alone, without comment.

[ask] Look up and report measured solubility (mole fraction) for this entry: Cl.N=C(N)N
[reply] 0.142

====

# Condition details: in 2-butoxyethanol, 318.15 K
Parameter: solubility (mole fraction)
Please state the value as a number alone, without comment.

[ask] Look up and report measured solubility (mole fraction) for this entry: Cl.N=C(N)N
[reply] 0.216

====

# Condition details: in 2-methoxyethanol, 288.15 K
Parameter: solubility (mole fraction)
Please state the value as a number alone, without comment.

[ask] Look up and report measured solubility (mole fraction) for this entry: Cl.N=C(N)N
[reply] 0.312
